What %VEGFR2 (membrane) was measured for each of the following?
- System: membrane VEGFR-2
- EXPERIMENTAL DETAILS: Membrane VEGFR-2 relative quantification by flow cytometry in cancer cells co-cultured with Jurkat T cells
- Assay type: cell-based, human
- MEASUREMENT CONTEXT: MCF7 co-cultured with Jurkat T cells, 100 μM, 24 h, relative to non-treated co-cultures
- Method: We determined by flow cytometry the effect of these compounds on the expression of membrane PD-L1 in cancer cells when they were co-cultured with immune cells. Thus, interferon γ-stimulated cancer cells were treated for 24 h with the compounds at 100 μM in presence of Jurkat T cells. Then, cells were fixed and treated with anti-PD-L1 conjugated to AlexaFluor®647. […]
// note: answer is a bare numeric in %

Form field: %VEGFR2 (membrane) recorded for OCCc1ccc(CCn2cc(-c3ccccc3Br)nn2)cc1 with membrane VEGFR-2 (enter value)
108

Now try Cc1c(COc2ccc(CN3CCCCC3C(=O)O)cc2Br)cccc1-c1ccccc1 (stereo not shown) [BMS-8, reference compound] .
100

Now try COc1ccc(C(OCCc2ccc(CCn3cc(-c4cccc(OC)c4)nn3)cc2)(c2ccccc2)c2ccc(OC)cc2)cc1 .
92

Now try COc1ccc(C(OCCc2ccc(CCn3cc(-c4ccccc4)nn3)cc2)(c2ccccc2)c2ccc(OC)cc2)cc1 .
76

Now try COc1ccc(C(OCCc2ccc(CCn3cc(-c4ccccc4Br)nn3)cc2)(c2ccccc2)c2ccc(OC)cc2)cc1 .
100

Now try COc1ccccc1-c1cn(CCc2ccc(CCO)cc2)nn1 .
91

Now try OCCc1ccc(CCn2cc(-c3ccc(Br)cc3)nn2)cc1 .
121

Value source: paper PMC9917184
